Origin of values: patent US20240384268A1

Catalogue of TLR7 100 nM (averaged NF-κB-Luciferase level relative to R848 condition) values
systemTested: human TLR7 (Homo sapiens)
Construct: HA; host or cells: 293XL-hTLR7-HA (HEK293)
Sequence (Q9NYK1 27-1049): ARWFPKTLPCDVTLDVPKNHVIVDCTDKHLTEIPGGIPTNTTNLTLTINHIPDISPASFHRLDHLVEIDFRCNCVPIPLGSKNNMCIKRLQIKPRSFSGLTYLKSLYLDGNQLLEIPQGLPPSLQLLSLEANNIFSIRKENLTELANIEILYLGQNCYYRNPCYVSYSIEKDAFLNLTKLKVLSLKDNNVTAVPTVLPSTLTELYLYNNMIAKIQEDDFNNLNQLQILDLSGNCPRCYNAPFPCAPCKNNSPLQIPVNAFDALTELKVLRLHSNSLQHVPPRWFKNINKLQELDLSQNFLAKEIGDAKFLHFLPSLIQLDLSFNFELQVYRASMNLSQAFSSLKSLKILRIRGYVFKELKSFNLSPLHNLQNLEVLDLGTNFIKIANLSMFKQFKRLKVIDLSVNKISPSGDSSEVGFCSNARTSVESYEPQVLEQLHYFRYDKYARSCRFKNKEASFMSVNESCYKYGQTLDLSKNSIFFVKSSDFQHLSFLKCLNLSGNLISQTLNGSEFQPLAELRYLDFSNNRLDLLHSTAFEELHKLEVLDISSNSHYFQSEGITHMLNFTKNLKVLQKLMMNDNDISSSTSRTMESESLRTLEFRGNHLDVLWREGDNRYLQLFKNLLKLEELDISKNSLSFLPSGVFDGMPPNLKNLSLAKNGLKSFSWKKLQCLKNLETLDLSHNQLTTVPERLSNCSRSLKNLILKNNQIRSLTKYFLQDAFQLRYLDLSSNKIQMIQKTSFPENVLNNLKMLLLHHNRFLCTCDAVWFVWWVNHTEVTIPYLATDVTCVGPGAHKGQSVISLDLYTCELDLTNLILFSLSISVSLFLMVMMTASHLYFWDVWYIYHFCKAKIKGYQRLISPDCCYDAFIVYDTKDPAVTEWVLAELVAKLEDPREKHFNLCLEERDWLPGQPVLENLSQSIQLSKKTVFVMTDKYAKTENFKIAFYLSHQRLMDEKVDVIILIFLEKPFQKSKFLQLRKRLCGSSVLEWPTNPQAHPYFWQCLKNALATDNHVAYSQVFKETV
assay: HEK-TLR7 NF-κB-luciferase reporter, R848 stimulation
Type: cell-based
measurementConditions: ASO 100 nM; relative to R848 only, given as fraction
// print number alone

The cases that follow already have their TLR7 100 nM (averaged NF-κB-Luciferase level relative to R848 condition) on record.
monomerSequence | testValue
GTGATCTTGACATGCT (antisense; LNA-modified, pattern not given here) [EGFR-2790 LNA KL] | 0.438
AGGACTCCAGATGTTT (antisense; LNA-modified, pattern not given here) [HPRT LNA pos cont] | 0.437
GTGATGGCCTCCCATC (antisense; LNA-modified, pattern not given here) [HPRT LNA-333 V1] | 0.665

Let us examine a further case.
Inquiry: Consider the sequence shown here: GCCATGCTGGCTCGGA (antisense; LNA-modified, pattern not given here) [CAMSAP1-2584 LNA V1] What is its recorded TLR7 100 nM (averaged NF-κB-Luciferase level relative to R848 condition)?
Reply text: 0.638

----------
systemTested: human TLR9 (Homo sapiens, UniProt Q9NR96)
Construct: HA; host or cells: 293XL-hTLR9-HA (HEK293)
Sequence (Q9NR96 26-1032): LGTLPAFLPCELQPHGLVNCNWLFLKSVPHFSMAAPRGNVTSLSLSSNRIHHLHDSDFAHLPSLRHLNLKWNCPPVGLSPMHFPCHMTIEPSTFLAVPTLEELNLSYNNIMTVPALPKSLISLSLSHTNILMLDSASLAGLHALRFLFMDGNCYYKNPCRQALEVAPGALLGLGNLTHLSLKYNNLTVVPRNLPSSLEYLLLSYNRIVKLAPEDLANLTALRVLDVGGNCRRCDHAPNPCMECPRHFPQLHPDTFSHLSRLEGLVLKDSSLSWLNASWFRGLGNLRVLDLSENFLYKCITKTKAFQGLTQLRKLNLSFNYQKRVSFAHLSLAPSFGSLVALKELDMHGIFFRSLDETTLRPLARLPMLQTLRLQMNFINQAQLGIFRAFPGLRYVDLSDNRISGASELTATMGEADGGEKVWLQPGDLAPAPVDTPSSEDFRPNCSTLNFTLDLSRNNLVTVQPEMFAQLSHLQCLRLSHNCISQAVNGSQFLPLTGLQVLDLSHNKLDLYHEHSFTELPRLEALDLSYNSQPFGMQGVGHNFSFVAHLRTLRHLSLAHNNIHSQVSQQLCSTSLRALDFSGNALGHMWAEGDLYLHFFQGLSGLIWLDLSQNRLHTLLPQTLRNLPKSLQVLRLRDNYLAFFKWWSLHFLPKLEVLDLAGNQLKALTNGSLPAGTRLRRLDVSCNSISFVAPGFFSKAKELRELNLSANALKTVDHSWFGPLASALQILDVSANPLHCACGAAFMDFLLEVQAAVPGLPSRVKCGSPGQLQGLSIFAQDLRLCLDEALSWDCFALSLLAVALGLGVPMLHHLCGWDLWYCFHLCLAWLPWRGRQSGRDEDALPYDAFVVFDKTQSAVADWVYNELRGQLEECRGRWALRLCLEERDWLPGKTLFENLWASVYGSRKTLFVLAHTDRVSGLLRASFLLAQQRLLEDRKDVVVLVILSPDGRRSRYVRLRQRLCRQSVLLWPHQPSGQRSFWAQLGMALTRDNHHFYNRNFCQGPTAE
assay: HEK-TLR9 NF-κB-luciferase reporter, ODN2006 stimulation
Type: cell-based
measurementConditions: HEK-TLR9; 500 nM ASO 45 min, then 200 nM ODN2006 overnight; percentage of ODN2006 only
In the oligonucleotide strings, read from the 5' end, every base follows the letter of its sugar. An asterisk marks phosphorothioate; unmarked linkages are phosphodiester. Other units and linkages are bracketed, terminal groups are in braces. A string of capitals states the bases alone. d = 2'-deoxy (DNA); m = 2'-O-methyl
Catalogue of TLR9-500 nM: averaged NF-κB-Luciferase relative to ODN2006 values
Give the quantity in %, number only.

substance | testValue
mG*mU*mG*mU*mU*T*T*T*A*A*T*T*T*T*G*mU*mA*mG*mA*mG (mG*mU*mG*mU*mU*dT*dT*dT*dA*dA*dT*dT*dT*dT*dG*mU*mA*mG*mA*mG) [[CDKN2B-AS1]611] | 98.50
mG*mG*mU*mC*mC*C*A*T*C*C*C*T*T*C*T*mG*mC*mU*mG*mC (GGUCCCATCCCTTCTGCUGC; sugars from the 5' end m5 d10 m5, all phosphorothioate, methylation of C not given here) [[LINC-PINT]103] | 88.75

Inquiry: Consider the substance shown here: mU*mC*mU*mC*mC*A*T*G*T*C*C*C*A*G*G*mC*mC*mU*mC*mC (mU*mC*mU*mC*mC*dA*dT*dG*dT*dC*dC*dC*dA*dG*dG*mC*mC*mU*mC*mC; antisense) [[CDKN2B-AS1]2230] What is its recorded TLR9-500 nM: averaged NF-κB-Luciferase relative to ODN2006?
Reply text: 118.93
